Catalogue of compounds with associated Pods per Plant
# Test system: soybean (Var. Clark)
# assay notes: effect of haloaniline derivatives on soybean yields at different rates and stages of growth (Table VIII)
# Format: in vivo
# test conditions: 3rd treatment, 0.30 lbs./A
quantity kind: Pods per Plant

compound	quantity kind	value measured
Clc1ccc(N=Cc2ccccc2)cc1Cl [XIII, 3,4-Dichloro-N-benzylideneaniline]	Pods per Plant	11.0
Clc1cc(Cl)cc(N=Cc2ccccc2)c1 [IV, 3,5-dichloro-N-benzylideneaniline]	Pods per Plant	13.2
O=CNc1cc(Cl)cc(Cl)c1 [XVIII, 3',5'-dichloroformanilide]	Pods per Plant	5.2
Clc1cc(Cl)cc(NCNc2cc(Cl)cc(Cl)c2)c1 [I]	Pods per Plant	8.3

###

# System: soybean (Var. Clark)
# assay notes: effect of haloaniline derivatives on soybean yields at different rates and stages of growth (Table VIII)
# Type: in vivo
# test conditions: 3rd treatment, 0.90 lbs./A

molecule	Seeds per Pod
O=CNc1cc(Cl)cc(Cl)c1 [XVIII, 3',5'-dichloroformanilide]	1.8
Clc1cc(Cl)cc(N=Cc2ccccc2)c1	1.9
Clc1ccc(N=Cc2ccccc2)cc1Cl	1.8
Clc1cc(Cl)cc(NCNc2cc(Cl)cc(Cl)c2)c1	1.5

###

Catalogue of molecules with associated Injury (0-10)
# System: soybean (Var. Clark)
# assay notes: greenhouse growth regulator test on soybean (Table I)
# Assay type: in vivo
# test conditions: 2 lbs/acre; 0-10 scale; 0 = no effect, 10 = complete kill; two weeks after application
quantity kind: Injury (0-10)

molecule	quantity kind	value measured
Cl.Clc1cc(Cl)cc(N=CNc2cc(Cl)cc(Cl)c2)c1	Injury (0-10)	0
Clc1ccc(N=Cc2ccccc2)cc1Cl	Injury (0-10)	4
Clc1cc(Cl)cc(N=Cc2c(Cl)cccc2Cl)c1	Injury (0-10)	0
CCOC=Nc1ccc(Cl)c(Cl)c1 [XVII, ethyl N-(3,4-dichlorophenyl)formimidate]	Injury (0-10)	6
Clc1ccc(N=Cc2ccccc2Cl)cc1Cl	Injury (0-10)	2
Clc1ccc(N=Cc2c(Cl)cccc2Cl)cc1Cl	Injury (0-10)	1
Clc1ccc(C=Nc2ccc(Cl)c(Cl)c2)cc1	Injury (0-10)	3
Clc1cc(Cl)cc(N=CNc2cc(Cl)cc(Cl)c2)c1 [XIV, N,N'-Bis[3,5-dichlorophenyl]formamidine]	Injury (0-10)	0
Clc1ccc(NCNc2ccc(Cl)c(Cl)c2)cc1Cl	Injury (0-10)	2
Clc1cc(Cl)cc(N=Cc2ccccc2)c1	Injury (0-10)	1
Clc1ccc(N=CNc2ccc(Cl)c(Cl)c2)cc1Cl [XV, n,n'-bis[3,4-dichlorophenyl]formamidine]	Injury (0-10)	1
CCOC(CC)=Nc1cc(Cl)cc(Cl)c1	Injury (0-10)	1
Clc1cccc(C=Nc2ccc(Cl)c(Cl)c2)c1	Injury (0-10)	3
Brc1cc(Br)cc(NCNc2cc(Br)cc(Br)c2)c1	Injury (0-10)	1
Clc1ccc(C=Nc2cc(Cl)cc(Cl)c2)cc1	Injury (0-10)	0
O=CNc1cc(Cl)cc(Cl)c1 [XVIII, 3',5'-dichloroformanilide]	Injury (0-10)	1
CCOC=Nc1cc(Cl)cc(Cl)c1 [XVI, Ethyl N-(3,5-dichlorophenyl)formimidate]	Injury (0-10)	2
Clc1cc(Cl)cc(NCNc2cc(Cl)cc(Cl)c2)c1	Injury (0-10)	1
Clc1cc(Cl)cc(N=Cc2ccccc2Cl)c1	Injury (0-10)	0
Clc1cccc(C=Nc2cc(Cl)cc(Cl)c2)c1	Injury (0-10)	1
O=CNc1ccc(Cl)c(Cl)c1 [XIX, 3',4'-dichloroformanilide]	Injury (0-10)	3

###

Catalogue of compounds with associated pest or weed control
# System: soybean (Var. Clark)
# assay notes: greenhouse growth regulator test on soybean (Table I)
# Format: in vivo
# test conditions: Glycine max, foliar, 336 h, 1/2 lbs/acre foliar spray, two weeks after application, relative to control; read-out: Height (% inhib.)

compound	pest or weed control (%)
Clc1ccc(N=Cc2ccccc2)cc1Cl	9
Clc1cc(Cl)cc(N=CNc2cc(Cl)cc(Cl)c2)c1 [XIV, N,N'-Bis[3,5-dichlorophenyl]formamidine]	11
Clc1ccc(C=Nc2cc(Cl)cc(Cl)c2)cc1	9
O=CNc1cc(Cl)cc(Cl)c1 [XVIII, 3',5'-dichloroformanilide]	11
Clc1ccc(C=Nc2ccc(Cl)c(Cl)c2)cc1	25

###

Catalogue of compounds with associated Injury (0-10)
# Tested on: soybean (Var. Clark)
# assay notes: greenhouse growth regulator test on soybean (Table I)
# Assay type: in vivo
# test conditions: 1/2 lbs/acre; 0-10 scale; 0 = no effect, 10 = complete kill; two weeks after application
quantity kind: Injury (0-10)

compound	quantity kind	value measured
Clc1cccc(C=Nc2ccc(Cl)c(Cl)c2)c1	Injury (0-10)	1
O=CNc1ccc(Cl)c(Cl)c1 [XIX, 3',4'-dichloroformanilide]	Injury (0-10)	0
Clc1ccc(C=Nc2ccc(Cl)c(Cl)c2)cc1	Injury (0-10)	1
CCOC(CC)=Nc1cc(Cl)cc(Cl)c1	Injury (0-10)	1
Clc1ccc(N=Cc2c(Cl)cccc2Cl)cc1Cl	Injury (0-10)	1
Clc1ccc(NCNc2ccc(Cl)c(Cl)c2)cc1Cl	Injury (0-10)	2

###

Catalogue of molecules with associated Seeds per Pod
# Tested on: soybean (Var. Clark)
# assay notes: effect of haloaniline derivatives on soybean yields at different rates and stages of growth (Table VIII)
# Type: in vivo
# test conditions: 3rd treatment, 0.30 lbs./A
quantity kind: Seeds per Pod

molecule	quantity kind	value measured
Clc1ccc(N=Cc2ccccc2)cc1Cl [XIII, 3,4-Dichloro-N-benzylideneaniline]	Seeds per Pod	1.6
Clc1cc(Cl)cc(N=Cc2ccccc2)c1 [IV, 3,5-dichloro-N-benzylideneaniline]	Seeds per Pod	1.7
O=CNc1cc(Cl)cc(Cl)c1 [XVIII, 3',5'-dichloroformanilide]	Seeds per Pod	2.0
Clc1cc(Cl)cc(NCNc2cc(Cl)cc(Cl)c2)c1 [I]	Seeds per Pod	1.6

###

# Tested on: soybean (Var. Clark)
# assay notes: effect of haloaniline derivatives on soybean yields at different rates and stages of growth (Table VIII)
# Type: in vivo
# test conditions: 2nd treatment, 0.90 lbs./A
quantity kind: Seeds per Pod

molecule	quantity kind	value measured
O=CNc1cc(Cl)cc(Cl)c1 [XVIII, 3',5'-dichloroformanilide]	Seeds per Pod	1.0
Clc1cc(Cl)cc(N=Cc2ccccc2)c1 [IV, 3,5-dichloro-N-benzylideneaniline]	Seeds per Pod	1.2
Clc1ccc(N=Cc2ccccc2)cc1Cl [XIII, 3,4-Dichloro-N-benzylideneaniline]	Seeds per Pod	1.3
Clc1cc(Cl)cc(NCNc2cc(Cl)cc(Cl)c2)c1 [I]	Seeds per Pod	0.5
